Numbers sourced from paper PMC10726135.

# subject_of_test: HNF4alpha8 (COS-7 nuclear extract) (Homo sapiens, UniProt P41235-5 1-452)
# Sequence: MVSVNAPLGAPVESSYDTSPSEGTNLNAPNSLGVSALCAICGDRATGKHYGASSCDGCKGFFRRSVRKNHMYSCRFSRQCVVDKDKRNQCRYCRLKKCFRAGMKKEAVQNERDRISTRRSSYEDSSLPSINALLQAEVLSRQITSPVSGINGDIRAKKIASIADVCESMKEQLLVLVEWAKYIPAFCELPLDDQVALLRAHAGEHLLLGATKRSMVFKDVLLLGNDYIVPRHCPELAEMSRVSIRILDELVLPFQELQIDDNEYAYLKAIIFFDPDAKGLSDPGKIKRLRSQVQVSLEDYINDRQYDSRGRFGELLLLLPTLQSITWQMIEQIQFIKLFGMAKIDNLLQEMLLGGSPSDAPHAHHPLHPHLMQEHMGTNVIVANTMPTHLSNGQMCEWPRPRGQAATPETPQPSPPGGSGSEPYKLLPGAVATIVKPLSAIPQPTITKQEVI
# test_protocol: protein-binding microarray; COS-7 nuclear extract on double-stranded Agilent 4x180k PBM; binding buffer, salt, pH and temperature not given in the material; high values mean tight binding
# settings: chain copies: 2; label: 3' end of strand 1 on the slide; dsDNA, one strand shown
In all, about 18,000 sequences were measured (“log2 normalized intensity”: median about 0.36, highest 2% from about 7.3 on). For the sample, the highest values were picked, then their nearest neighbours and some sequences at random.
quantity: binding signal (log2 normalized intensity)
Return type: number; implicit unit log2 normalized intensity.

Answered examples (3):
item_sequence=CTGAGGTTAAAGTCCACATTCTTTAGCATAGCCTAGGGAGATTAGAGTATCGGTCGA readout_value=6.12
item_sequence=GCCACATCCCCCACACCGAGATAGTAGAGAGCCTAGGGAGATTAGAGTATCGGTCGA readout_value=3.27
item_sequence=TTAGCCCAGTGAGACCCATTTTGGACTTTGGCCTAGGGAGATTAGAGTATCGGTCGA readout_value=7.42

Next sequence, binding signal to be filled in.
What value of binding signal has been recorded for this entry: ACACAGTACTTTGTACATGGGAATAGACATGCCTAGGGAGATTAGAGTATCGGTCGA
0.975

====

# subject_of_test: HNF4alpha8 (COS-7 nuclear extract) (Homo sapiens, UniProt P41235-5 1-452)
# Sequence: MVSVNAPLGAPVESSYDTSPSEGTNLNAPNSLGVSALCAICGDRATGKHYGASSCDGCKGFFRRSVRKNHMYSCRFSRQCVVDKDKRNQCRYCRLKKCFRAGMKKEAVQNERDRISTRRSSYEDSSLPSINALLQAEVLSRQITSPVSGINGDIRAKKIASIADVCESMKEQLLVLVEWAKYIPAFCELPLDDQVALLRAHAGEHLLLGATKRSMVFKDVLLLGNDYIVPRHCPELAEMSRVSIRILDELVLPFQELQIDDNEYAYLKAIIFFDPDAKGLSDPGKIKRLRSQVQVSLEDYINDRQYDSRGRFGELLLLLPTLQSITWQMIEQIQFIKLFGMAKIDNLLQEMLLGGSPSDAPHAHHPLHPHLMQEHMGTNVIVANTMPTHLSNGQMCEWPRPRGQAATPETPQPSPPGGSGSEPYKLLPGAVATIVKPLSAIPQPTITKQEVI
# test_protocol: protein-binding microarray; COS-7 nuclear extract on double-stranded Agilent 4x180k PBM; binding buffer, salt, pH and temperature not given in the material; high values mean tight binding
# settings: chain copies: 2; label: 3' end of strand 1 on the slide; dsDNA, one strand shown
The full ranking holds about 18,000 sequences; the median of “log2 normalized intensity” is about 0.36, and the highest 2% start at about 7.3. For the sample, the highest values were picked, then their nearest neighbours and some sequences at random.
Criterion: binding signal meeting or surpassing 1 log2 normalized intensity. Met: MET. Not met: NOT MET.

item_sequence=GAATGGCCAGAGTTCCTGTGCAAGCCCCTGGCCTAGGGAGATTAGAGTATCGGTCGA subject_of_test="HNF4alpha8 (COS-7 nuclear extract) (Homo sapiens, UniProt P41235-5 1-452)" assigned_class="NOT MET"
item_sequence=TTTGTCTGTGTAGACTCATCTGGTGTCATTGCCTAGGGAGATTAGAGTATCGGTCGA subject_of_test="HNF4alpha8 (COS-7 nuclear extract) (Homo sapiens, UniProt P41235-5 1-452)" assigned_class=MET
item_sequence=ATAAATAAAGCCCTGGGGTAATAAAAGTGTGCCTAGGGAGATTAGAGTATCGGTCGA subject_of_test="HNF4alpha8 (COS-7 nuclear extract) (Homo sapiens, UniProt P41235-5 1-452)" assigned_class="NOT MET"

Exam item: decide whether the reported binding signal for CTGTTTCTTTGTGTGTCAACAGAGTGCTTAGCCTAGGGAGATTAGAGTATCGGTCGA is at least 1 log2 normalized intensity.
MET
